# Experimental Target: T1, recombinant staphylococcal enterotoxin B (SEB), mature protein with N-terminal His6-tag (Staphylococcus aureus COL), P01552
# T1 chain: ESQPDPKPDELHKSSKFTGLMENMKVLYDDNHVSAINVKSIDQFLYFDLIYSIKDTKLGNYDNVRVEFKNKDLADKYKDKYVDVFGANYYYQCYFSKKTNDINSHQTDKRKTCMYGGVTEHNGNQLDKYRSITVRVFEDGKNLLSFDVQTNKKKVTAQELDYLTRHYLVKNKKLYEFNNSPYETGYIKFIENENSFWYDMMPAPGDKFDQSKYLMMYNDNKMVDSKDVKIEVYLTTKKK
Property: Kd (µM)
Write the value in µM as a bare number.

Reported Kd of DSDSWTLR (modifications not checked) [pB2-6, immobilized for Surface Plasmon Resonance] : 3.9
